# Mean (MFI) per record follows
target entity: T1, HER2 on the surface of HER2+ cancer cells (BT474, SKOV-3) (human, UniProt P04626 23-1255)
T1 construct: whole, on cells; also called human epidermal growth factor receptor 2
experiment summary: flow cytometry on SKOV-3 cells (HER2+), 100 nM binding sites
assay metric: Mean (MFI)

- binder: "F4 anti-HER2 VHH (VHH) VHH: QVQLQESGGGLVQAGGSLKLSCAASGRTLSAYVVGWFRQAPGKERESVAAIGWSSRSPYYPDSVKGRFTISEDNTKNTVYLQMNSLKPDDTAVYYCAADSYPRRWDRESDFGSWGQGTQVTVSS"
  assay metric: "Mean (MFI)"
  recorded result: 86400
- binder: "F2 anti-HER2 VHH (VHH) VHH: QVQLQESGGGLVQAGGSLKLSCAASGRTLSAYVVGWFRQAPGRERESVAAIGWSTHSVYYADSVKGRFTISRDNTENTVYLQMNSLKPDDTAVYYCAADSSPRRWDRESDFGSWGQGTQVTVSS"
  assay metric: "Mean (MFI)"
  recorded result: 100000
